- SYSTEM: Estrogen receptor (Homo sapiens) (UniProt P03372)
- Sequence (P03372 whole entry, looked up): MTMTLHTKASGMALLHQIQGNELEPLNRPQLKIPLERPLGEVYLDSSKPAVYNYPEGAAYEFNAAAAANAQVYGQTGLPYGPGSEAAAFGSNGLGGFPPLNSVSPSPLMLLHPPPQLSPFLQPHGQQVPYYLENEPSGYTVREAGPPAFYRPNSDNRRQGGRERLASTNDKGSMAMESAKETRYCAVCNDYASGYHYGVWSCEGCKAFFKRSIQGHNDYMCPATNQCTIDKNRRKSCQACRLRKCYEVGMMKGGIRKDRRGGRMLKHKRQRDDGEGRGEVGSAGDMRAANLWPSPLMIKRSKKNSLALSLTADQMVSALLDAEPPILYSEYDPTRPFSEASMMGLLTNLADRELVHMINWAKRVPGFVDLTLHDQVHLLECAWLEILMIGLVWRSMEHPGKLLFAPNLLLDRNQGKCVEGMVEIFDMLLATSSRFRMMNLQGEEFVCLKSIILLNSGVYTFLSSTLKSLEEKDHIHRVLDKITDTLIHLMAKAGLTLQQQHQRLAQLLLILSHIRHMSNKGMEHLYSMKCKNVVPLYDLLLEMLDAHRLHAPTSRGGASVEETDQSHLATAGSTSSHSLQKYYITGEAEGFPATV
- METHOD DESCRIPTION: ATG_ERa_TRANS: Attagene TRANS-FACTORIAL HepG2 Assay for human Estrogen Receptor alpha (ERa) (AID 2282970)
- CONDITION SET: HepG2 Attagene TRANS ERa GAL4 reporter, mRNA
Records with an inconclusive call do not appear. The source made the active and inactive calls. Rule for the calls: active = hit-call score of the fitted dose curve at least 0.9, where 1 is the maximum; inconclusive = response in the unintended direction; inactive = score below 0.9.
Respond using exactly one of the listed classes: YES (active), NO (inactive)

Query :: How was `C[Si]1(C)O[Si](C)(C)O[Si](C)(C)O[Si](C)(C)O1` classified in this test?
Result :: YES

Query :: Hi, do you know how `Cc1c(C(=O)O)c(O)cc2c1C(=O)c1c(O)c([C@@H]3O[C@H](CO)[C@@H](O)[C@H](O)[C@H]3O)c(O)c(O)c1C2=O` came out in this test?
Result :: NO

Query :: For this molecule, state the assay outcome: `CC(=O)Oc1ccccc1C(=O)O`
Result :: NO

Query :: Answer briefly: the call reported for `CCCCCC(=O)O` in this assay.
Result :: NO

Query :: For `Cc1ccc(C)c(O)c1C` , what call appears in the results of this test?
Result :: NO

Query :: Test call for this molecule, please: `COc1cccc2c1C(=O)c1c(O)c3c(c(O)c1C2=O)C[C@@](O)(C(=O)CO)C[C@@H]3O[C@H]1C[C@H](N)[C@H](O)[C@H](C)O1`
Result :: NO

Query :: Please let me know the test result on file for `CCCCCCC(=O)OCC` .
Result :: YES

Query :: Hi, do you know how `O=C(N[C@@H](Cc1ccccc1)[C@@H](O)C(=O)N1C[C@@H](O)[C@@H](O)C1)c1cc2cc(Cl)ccc2[nH]1` came out in this test?
Result :: NO

Query :: Tell me the assay call for Cc1nc(-c2ccc3c(c2)CCN(CCC2CCC(NC(=O)/C=C/c4ccc(F)cc4)CC2)CC3)no1 (stereo not given) please.
Result :: NO

Query :: Per the records of this test, what outcome belongs to `CCCCOC(=O)CCCCCCCCC(=O)OCCCC` ?
Result :: NO
